# system_name: Retinoic acid receptor RXR-alpha (Homo sapiens) (UniProt P19793)
# Sequence (P19793 whole entry, looked up): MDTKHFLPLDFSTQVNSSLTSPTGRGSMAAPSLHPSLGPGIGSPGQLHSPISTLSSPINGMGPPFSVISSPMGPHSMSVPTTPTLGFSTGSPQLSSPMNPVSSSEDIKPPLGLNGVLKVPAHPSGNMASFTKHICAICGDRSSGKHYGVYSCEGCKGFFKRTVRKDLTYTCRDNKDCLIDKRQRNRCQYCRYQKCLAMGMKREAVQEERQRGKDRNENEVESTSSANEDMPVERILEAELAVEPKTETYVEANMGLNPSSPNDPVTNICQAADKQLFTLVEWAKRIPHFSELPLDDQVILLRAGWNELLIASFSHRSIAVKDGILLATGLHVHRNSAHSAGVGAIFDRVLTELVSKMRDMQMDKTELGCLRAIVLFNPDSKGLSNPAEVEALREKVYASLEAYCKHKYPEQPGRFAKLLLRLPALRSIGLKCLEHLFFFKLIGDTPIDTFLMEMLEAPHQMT
# protocol_summary: ATG_RXRa_TRANS: Attagene TRANS-FACTORIAL HepG2 Assay for human Retinoid X Receptor alpha (RXRa) (AID 2283012)
Results filed as inconclusive are left out. The source made the active and inactive calls. The calls were made as follows: active = hit-call score of the fitted dose curve at least 0.9, where 1 is the maximum; inconclusive = response in the unintended direction; inactive = score below 0.9.
parameter: outcome

Worked set:
compound: COP(=O)(OC)C(O)C(Cl)(Cl)Cl (stereo unspecified)
outcome: inactive

compound: O=c1ccc(=O)[nH][nH]1
outcome: inactive

compound: C#CCC1=C(C)C(OC(=O)C2C(C=C(C)C)C2(C)C)CC1=O (stereo unspecified)
outcome: inactive

compound: CCc1cccc(CC)c1N(COC)C(=O)CCl
outcome: inactive

compound: CCCOc1nn(C(=O)NS(=O)(=O)c2ccccc2C(=O)OC)c(=O)n1C
outcome: inactive

compound: COP(=O)(OC)SCn1c(=O)oc2cc(Cl)cnc21
outcome: inactive

compound: CCC(CC)Nc1c([N+](=O)[O-])cc(C)c(C)c1[N+](=O)[O-]
outcome: inactive

compound: C#CC(C)(C)NC(=O)c1cc(Cl)cc(Cl)c1
outcome: inactive

compound: CCOC(=O)COc1cc(-c2nn(C)c(OC(F)F)c2Cl)c(F)cc1Cl
outcome: inactive

compound: CCNc1nc(Cl)nc(NC(C)(C)C#N)n1
outcome: inactive

Please go through the list and note outcome for each compound.
1. Cc1cc(C2CC2)nc(Nc2ccccc2)n1
2. CC(=NC#N)N(C)Cc1ccc(Cl)nc1
3. CC(C)N(C(=O)SCC(Cl)=C(Cl)Cl)C(C)C
4. CCOP(=S)(Oc1cnc(C(C)(C)C)nc1)OC(C)C (stereo unspecified)

["inactive", "inactive", "inactive", "inactive"]

These data points were gathered from PubChem BioAssay (EPA / NIEHS).
